target: SARS-CoV-1 RBD (SARS-CoV); assay: ELISA, 100 ng coated RBD, neat supernatant, anti-human IgG-HRP
Item-by-item account of Binding SARS-CoV-1
# print the numeric value only

Past entries and their recorded results:
INSERT INTO results (binder, measurement_name, obs_value) VALUES
  ('Antibody 7 (SS6V7-C5) (antibody, V domains shown) VH: EVQLVQSGAEVKKPGESLKISCKGSENIFSGYWIGWVRQMPGKGLEWMGIIYPDDSDTRYNPSFQGQVTISADQSISTAYLQWSRLKASDTAMYYCARHLGGGSSWPIDYWGQGTLVTVSS VL: DIQMTQSPSSLSASVGDRVTITCRANQGISNYLAWFQQKPGKAPKSLIYAASSLQSGVPSKFSGNRSGTDFTLTISSLQPEDFATYYCQQYSSYPFTFGGGTKVEIK', 'Binding SARS-CoV-1', 0.972),
  ('Antibody 15 (SS6V15-F6) (antibody, V domains shown) VH: EVQLVESGGGVVQPGRSLRLSCAASGFTFSSYAIHWVRQAPGKALEWVALISYDGRTKYYADSVKGRFTISRDNSKNTLYLQMNSLRAEDTAVYYCARLDIIITPPANDYWGQGTLVTVSS VL: EIVLTQSPGTLSLSPGDRATVSCRASQIVSSNYLAWYQQKPGQVPRLLIYDASSRATGIPDRFSGSGSGTDFTLTISRLEPEDFAVYYCHQYGDSRRTFGQGTKVDIK', 'Binding SARS-CoV-1', 0.831);

Ask: Return reported Binding SARS-CoV-1; argument: Antibody 2 (SS6V2-G1) (antibody, V domains shown) VH: EVQLVESGGGLVQPGGSLRLSCAASGFTVSSNYMSWVRQAPGKGLEWVSVIYSGGSTFYADSVKGRFTISRDNSKNTLYLQMNSLRAEDTAVYYCARELRHYFDYWGQGTLVTVSS VL: DIQLTQSPSFLSASVGDRVTITCRASQGISSYLAWYQQKPGKAPKLLIYAASTLQSGVPSRFSGSGSGTEFTLTISSLQPEDFATYYCQQLNSYPPYSFGQGTKVEIK
Result: 0.008
